EXPERIMENTAL TARGET: Serine/threonine-protein kinase PAK 6 (Homo sapiens) (UniProt Q9NQU5);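 further: mean PAK6 inhibition reported from the GSK PKIS screen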
Sequence (Q9NQU5 whole entry, looked up): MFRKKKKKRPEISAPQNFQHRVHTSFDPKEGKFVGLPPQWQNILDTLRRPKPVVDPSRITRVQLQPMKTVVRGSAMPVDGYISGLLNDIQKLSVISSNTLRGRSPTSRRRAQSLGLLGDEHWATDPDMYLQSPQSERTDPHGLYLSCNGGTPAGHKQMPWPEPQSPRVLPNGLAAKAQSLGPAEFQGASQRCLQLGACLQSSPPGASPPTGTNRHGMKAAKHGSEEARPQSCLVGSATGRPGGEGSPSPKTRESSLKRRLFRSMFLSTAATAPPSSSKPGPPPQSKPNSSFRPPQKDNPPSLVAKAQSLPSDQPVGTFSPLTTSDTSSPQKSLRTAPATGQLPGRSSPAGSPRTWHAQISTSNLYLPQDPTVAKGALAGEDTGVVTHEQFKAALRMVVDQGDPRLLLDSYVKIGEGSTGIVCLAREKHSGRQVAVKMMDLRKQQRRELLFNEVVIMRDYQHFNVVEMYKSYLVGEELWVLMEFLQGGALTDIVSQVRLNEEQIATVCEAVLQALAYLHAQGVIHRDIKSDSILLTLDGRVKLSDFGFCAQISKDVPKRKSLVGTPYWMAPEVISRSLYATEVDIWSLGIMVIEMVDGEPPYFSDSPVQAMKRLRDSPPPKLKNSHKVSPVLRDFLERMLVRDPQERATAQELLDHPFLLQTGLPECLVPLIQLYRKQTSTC
EXPERIMENTAL CONTEXT: at 0.1 µM
Examples of compounds with documented inhibition follow.
PROPERTY: inhibition (%)

[
  {
    "CHEMICAL STRING": "CCc1cccc(NC(=O)Nc2ccc(Oc3ccc4nc(NC(=O)OC)[nH]c4c3)cc2)c1",
    "NUMERIC READOUT": 15.4
  },
  {
    "CHEMICAL STRING": "CS(=O)(=O)CCNCc1ccc(-c2ccc3ncnc(Nc4ccc(OCc5cccc(F)c5)c(C(F)(F)F)c4)c3c2)o1",
    "NUMERIC READOUT": -1.22
  },
  {
    "CHEMICAL STRING": "Cc1ccc(NC(=O)c2ccnc(N3CCCC3)c2)cc1-c1ccc(C(=O)NCC2CC2)cc1",
    "NUMERIC READOUT": -2.61
  },
  {
    "CHEMICAL STRING": "N#Cc1c(NC(=O)c2cccc3ccccc23)sc2c1CCCC2",
    "NUMERIC READOUT": 7.76
  },
  {
    "CHEMICAL STRING": "Nc1ncnc2occ(-c3ccc(NC(=O)Nc4cccc(C(F)(F)F)c4)cc3)c12",
    "NUMERIC READOUT": -0.62
  }
]
